# credit: patent US20240109887A1

// reported IC50 per item
biological target: KRAS-WT/SOS1 (Homo sapiens, UniProt Q07889); test: biochemical
measured-metric: IC50

compound="Cc1c[nH]c2c(C(=O)N[C@H](C)c3cccc4c3CCC4(F)F)cn(C3(C)CC3)c(=O)c12 [Example 21]" measured_metric=IC50 observed_value="< 100 nM"
compound="COc1c(CN(C)C)cc(C(=O)N[C@H](C)c2cccc3c2CCC3(F)F)c2n[nH]cc12 [Example 19]" measured_metric=IC50 observed_value="100 to 500 nM"
compound="COc1c(C2CCCNC2)cc(C(=O)N[C@H](C)c2cccc(C(F)(F)CO)c2)c2[nH]ncc12 (stereo partly shown) [Example 36]" measured_metric=IC50 observed_value="< 100 nM"
compound="CC(=O)N1CCC(n2cc(C(=O)N[C@H](C)c3cccc4c3CCC4(F)F)c3n[nH]cc3c2=O)CC1 [Example 10]" measured_metric=IC50 observed_value="< 100 nM"
compound="C[C@@H](NC(=O)c1cn(C2CC(F)(F)C2)c(=O)c2cn[nH]c12)c1cccc(C(F)(F)F)c1 [Example 14]" measured_metric=IC50 observed_value="100 to 500 nM"
compound="COc1c(C2CCCN(C)C2)cc(C(=O)N[C@H](C)c2cccc(C(F)(F)CO)c2)c2[nH]ncc12 (stereo partly shown) [Example 37]" measured_metric=IC50 observed_value="< 100 nM"
compound="CNCc1ccccc1-c1ccc([C@@H](C)NC(=O)c2cn(C3(C)CC3)c(=O)c3cn[nH]c23)s1 [Example 9]" measured_metric=IC50 observed_value="< 100 nM"

====

Target: KRAS-WT/SOS1 (Homo sapiens, UniProt Q07889)
Sequence (Q07889 1-1333): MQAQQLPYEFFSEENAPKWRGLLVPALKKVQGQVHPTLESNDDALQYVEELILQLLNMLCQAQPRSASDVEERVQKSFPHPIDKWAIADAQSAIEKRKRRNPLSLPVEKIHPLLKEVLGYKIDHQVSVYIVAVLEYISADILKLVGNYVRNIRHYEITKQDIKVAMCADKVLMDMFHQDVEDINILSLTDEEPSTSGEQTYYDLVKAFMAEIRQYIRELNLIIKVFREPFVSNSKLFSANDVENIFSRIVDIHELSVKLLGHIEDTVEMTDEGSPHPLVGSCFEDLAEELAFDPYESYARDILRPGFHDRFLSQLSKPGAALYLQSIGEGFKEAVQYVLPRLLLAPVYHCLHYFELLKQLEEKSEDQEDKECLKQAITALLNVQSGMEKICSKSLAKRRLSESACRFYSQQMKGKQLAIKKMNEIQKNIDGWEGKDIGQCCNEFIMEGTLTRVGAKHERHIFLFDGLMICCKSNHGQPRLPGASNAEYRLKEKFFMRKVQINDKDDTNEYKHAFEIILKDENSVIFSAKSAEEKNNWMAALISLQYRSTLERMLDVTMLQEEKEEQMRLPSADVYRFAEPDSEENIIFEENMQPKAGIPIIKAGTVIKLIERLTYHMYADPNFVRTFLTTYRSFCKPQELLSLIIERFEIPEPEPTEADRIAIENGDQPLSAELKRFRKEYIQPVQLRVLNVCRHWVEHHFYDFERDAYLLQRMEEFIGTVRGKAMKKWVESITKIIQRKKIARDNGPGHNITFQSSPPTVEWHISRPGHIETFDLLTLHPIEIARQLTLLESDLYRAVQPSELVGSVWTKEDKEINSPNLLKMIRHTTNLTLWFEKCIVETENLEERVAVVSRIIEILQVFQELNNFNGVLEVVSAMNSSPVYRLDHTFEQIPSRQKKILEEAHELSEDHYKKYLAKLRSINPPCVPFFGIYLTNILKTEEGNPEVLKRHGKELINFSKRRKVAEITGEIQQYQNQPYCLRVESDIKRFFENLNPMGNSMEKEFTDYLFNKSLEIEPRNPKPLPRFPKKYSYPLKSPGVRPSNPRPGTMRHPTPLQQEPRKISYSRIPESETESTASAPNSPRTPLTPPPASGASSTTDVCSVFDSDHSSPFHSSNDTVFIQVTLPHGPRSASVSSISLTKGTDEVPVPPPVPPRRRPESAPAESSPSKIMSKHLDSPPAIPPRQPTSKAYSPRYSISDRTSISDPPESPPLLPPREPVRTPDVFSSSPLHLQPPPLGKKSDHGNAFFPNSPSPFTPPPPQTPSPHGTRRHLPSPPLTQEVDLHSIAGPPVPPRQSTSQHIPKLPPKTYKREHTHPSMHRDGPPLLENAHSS
Assay: biochemical
pIC50: −log10 of the molar value.
measured-metric: pIC50

compound=COc1c(O[C@H]2CCOC2)cc(C(=O)N[C@H](C)c2cccc(C(F)(F)F)c2)c2n[nH]cc12 observed_value="6.30 to 7.00"
compound=COc1c(N2CCN(C)CC2)cc(C(=O)N[C@H](C)c2cccc(C(F)(F)CO)c2)c2[nH]ncc12 observed_value="> 7.00"
compound=Cc1nc(N[C@H](C)c2cccc(C(F)(F)CO)c2)c2c(n1)N(C)C(=O)N(C1CCOCC1)C2 observed_value="6.30 to 7.00"
compound="COc1c(C(C)N)cc(C(=O)N[C@H](C)c2cccc3c2CCC3(F)F)c2n[nH]cc12 (stereo partly shown)" observed_value="6.30 to 7.00"
